- test system: GLP-1 receptor (human (printed as hGLP1R), UniProt P43220 24-463)
- assay overview: cell-based or functional assay
Starred links: 1 amine or outer side, 2 acyl side, 3 side chain; linkers in the order of their positions; H or OH if unused. Non-standard residues stand in square brackets, D forms with d. Groups on a side chain read outwards from the residue. No end group written: not given here. *: point of attachment. C20 diacid = O=C(O)CCCCCCCCCCCCCCCCCCC(=O)*; γGlu = O=C(O)[C@H](CCC(=O)[*:2])N[*:1]; εLys = N[C@@H](CCCCN[*:1])C(=O)[*:2]; Aib = CC(C)(N)C(=O)O
measure name: EC50 hGLP1R 100% hP (CreLuc) (nM)
Numbers only here, please. The scale is nM.

Consider the following illustrative entries.
| binder | readout units | value measured |
| --- | --- | --- |
| YXEGTFTSDYSIXLEKQAQDAFVEWLIKGGPSSGASLRHYYNWLTRQRY (Aib at 2, 13; D-Asp at 20; K28 side chain carries C20DA-gGlu-gGlu-gGlu-gGlu-gGlu-gGlu-eLys; C-terminal amide) [Compound 211] | nM | 25.9 |
| Y[Aib]EGTFTSDYSI[Aib]LEKQAQ[Aib]AFVEWLIK([γGlu-γGlu-γGlu-γGlu-γGlu-γGlu-C20 diacid])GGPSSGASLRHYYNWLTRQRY-NH2 (also: TFA salt) [Compound 235] | nM | 4.64 |

Shift focus to the following entry.
Input: Report EC50 hGLP1R 100% hP (CreLuc) for Y[Aib]EGTFTSDYSI[Aib]LEKQAQ[Aib]AFVQWLIK([εLys-γGlu-γGlu-γGlu-γGlu-γGlu-C20 diacid])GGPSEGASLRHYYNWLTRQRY-NH2 (also: TFA salt) [Compound 242] please.
Output: 4.69
